- Test system: A673/TR/shEF
- test: cell viability (LOESS-normalised, relative to median of negative controls) (log2 ratio); higher = more viable cells (less compound effect), active = hit call of the paper (over 3 MAD below the median)
- applied_conditions: 0.025 µM; library screen: screen1; EWS-FLI1 expression: high (no doxycycline); treatment time: 72 h
Out of some 3,200 compounds screened, about 300 (9.4%) showed activity. The full list was thinned out, with actives kept by preference.
Entries whose cell viability (log2) is below 0.2 take Yes; entries at or above 0.2 take No.

compound	assigned_label
Nc1ncnc2c1c(I)cn2[C@@H]1O[C@H](CO)[C@@H](O)[C@H]1O	Yes
O=C(O)c1cc(NCc2cc(O)ccc2O)ccc1O	No

Please state whether cell viability (log2) is below 0.2 for O=P(O)(O)C(O)c1ccc2ccccc2c1 (configuration not stated)
Yes

Please state whether cell viability (log2) is below 0.2 for Oc1cc(O)cc(/C=C/c2ccc(O)c(O)c2)c1
Yes

Please state whether cell viability (log2) is below 0.2 for CC(C)c1cc(/C=C(\C#N)C(=O)NCCCc2ccccc2)cc(C(C)C)c1O
No

Please state whether cell viability (log2) is below 0.2 for N#CC(C#N)=C(N)/C(C#N)=C/c1ccc2[nH]ccc2c1
No

Please state whether cell viability (log2) is below 0.2 for O=c1c(O)c(-c2ccc(O)c(O)c2)oc2cc(O)cc(O)c12
No

---

- System: A673/TR/shEF
- test: cell viability (LOESS-normalised, relative to median of negative controls) (log2 ratio); higher = more viable cells (less compound effect), active = hit call of the paper (over 3 MAD below the median)
- applied_conditions: 2.5 µM; library screen: screen1; EWS-FLI1 expression: high (no doxycycline); treatment time: 72 h
Hit rate of the full screen: of about 3,200 compounds, about 300 (9.4%) showed activity. The entries come from a sample that favours actives as a whole.
property_measured: cell viability (log2)
// response body must contain only the number

molecule	test_result
Nc1ncnc2c1ncn2[C@@H]1O[C@H](COP(=O)(O)O)[C@@H](O)[C@H]1O	0.171

Look up cell viability (log2): CC(C)n1cnc2c(NCc3ccccc3)nc(NCCO)nc21
-0.011

Look up cell viability (log2): COc1ccccc1C1NC(=S)NC(C)=C1C(=O)Nc1cccc(Cl)c1 (configuration not stated)
0.0795

Look up cell viability (log2): CCOC(=O)C1=C(C)NC2=C(C(=O)CC(C)(C)C2)C1c1coc2ccccc2c1=O (configuration not stated)
0.0647

Look up cell viability (log2): Cn1cnc2c(NCc3ccccc3)nc(NCCO)nc21
0.0349

Look up cell viability (log2): COc1ccc(C(=O)c2ccc(O)cc2O)c(O)c1
0.116

Look up cell viability (log2): COc1cc(C(=O)O)c(O)c2c1OCO2
0.116

Look up cell viability (log2): CC1CCC(O)C/C1=C/C=C1\CCCC2(C)C1CCC2C(C)/C=C/C(C)C(C)C (configuration not stated)
0.0774

Look up cell viability (log2): C=CC(C1=CC(=O)C(OC)=CC1=O)c1ccc(OC)cc1 (configuration not stated)
0.157

Look up cell viability (log2): COc1cc(-c2oc3c(OC)c(O)cc(O)c3c(=O)c2O)ccc1O
0.0118

Look up cell viability (log2): Cn1c(=O)[nH]c(=O)c2[nH]cnc21
0.111

Look up cell viability (log2): Nc1nc(=O)c2nc(CNc3ccc(C(=O)N[C@@H](CCC(=O)O)C(=O)O)cc3)cnc2[nH]1
0.0902

Look up cell viability (log2): Cc1cc(OC(=O)c2c(C)cc(O)cc2O)cc(O)c1C(=O)O
0.0665

Look up cell viability (log2): N#C/C(=C\c1cc(Cl)cc(Cl)c1)c1cccnc1
0.0839

Look up cell viability (log2): Cc1ccc(C(C)C)cc2c(C)ccc1-2
0.0686

Look up cell viability (log2): CCc1c(C)c(C#N)c2nc3ccccc3n2c1-n1ccnc1C
0.104

Look up cell viability (log2): O=C(O)C(O)C(O)(Cc1ccc(O)cc1)C(=O)O (configuration not stated)
0.147

Look up cell viability (log2): Cc1c(C(=O)O)c(O)cc2c1C(=O)c1c(O)c([C@@H]3O[C@H](CO)[C@@H](O)[C@H](O)[C@H]3O)c(O)c(O)c1C2=O
0.0928

Look up cell viability (log2): CC(C)c1c(O)ccc2c1CCC1[C@@](C)(C=O)CCC[C@]21C (some centres not stated)
0.163

---

- Tested on: A673/TR/shEF
- test: cell viability (LOESS-normalised, relative to median of negative controls) (log2 ratio); higher = more viable cells (less compound effect), active = hit call of the paper (over 3 MAD below the median)
- applied_conditions: 0.25 µM; library screen: screen1; EWS-FLI1 expression: high (no doxycycline); treatment time: 72 h
The campaign covered roughly 3,200 compounds. About 300 (9.4%) showed activity. The sample holds actives, similar compounds and a random draw of the others, so the mix is not that of the screen.
This listing pairs compounds with measured cell viability (log2).
// response body must contain only the number

# example entries with known answers
compound	cell viability (log2)
CC(=O)Oc1cc(-c2coc3cc(OC(C)=O)c(OC(C)=O)c(OC(C)=O)c3c2=O)cc(OC(C)=O)c1OC(C)=O	0.0397
O=C(O)/C=C1/CCCc2ccccc2C1O (stereo not given)	0.0671
CC(C)=CCC/C(C)=C/CC/C(C)=C/CO	0.153
COC(=O)c1c(C)c2c(c(C)c1OC(C)=O)OC(=O)c1c(C)c(Cl)c(O)c(Cl)c1O2	0.0664

Next:
Entry CC1=C(C(=O)Nc2cccc(Cl)c2)C(c2cccs2)NC(=S)N1 (stereo not given) , system A673/TR/shEF: what cell viability (log2) was measured?
0.0938

---

- Tested on: A673/TR/shEF
- test: cell viability (LOESS-normalised, relative to median of negative controls) (log2 ratio); higher = more viable cells (less compound effect), active = hit call of the paper (over 3 MAD below the median)
- applied_conditions: 0.926 µM; library screen: screen3; EWS-FLI1 expression: low (doxycycline-induced shRNA knockdown); treatment time: 72 h
In all, about 3,200 compounds went through this assay and about 300 (9.4%) showed activity. Only a selection was taken, and actives are over-represented in it overall.
Result category, one only: y (active), n (inactive)

These recorded examples may help you get a feel for the data.
compound	assigned_label
Cn1cncc1[C@@](N)(c1ccc(Cl)cc1)c1ccc2c(c1)c(-c1cccc(Cl)c1)cc(=O)n2C	n
CCCS(=O)(=O)Nc1ccc(F)c(C(=O)c2c[nH]c3ncc(-c4ccc(Cl)cc4)cc23)c1F	n
CCCCC1=NC2(CCCC2)C(=O)N1Cc1ccc(-c2ccccc2-c2nn[nH]n2)cc1	n
Nc1ncnc2c1ncn2[C@@H]1O[C@H](CO)[C@@H](O)[C@@H]1O	n
Nc1cccc(-c2cc3c(Oc4cccc(O)c4)ncnc3[nH]2)c1	n
CC[C@H](CO)Nc1nc(NCc2ccccc2)c2ncn(C(C)C)c2n1	n
O=C(O)C[C@H](O)C[C@H](O)/C=C/c1c(C2CC2)nc2ccccc2c1-c1ccc(F)cc1	y

Next up:
State the result this test recorded for C[N+]1(C)C2CC(OC(=O)C(O)(c3cccs3)c3cccs3)CC1C1OC12 (stereo not drawn) .
n

---

- Test system: A673/TR/shEF
- test: cell viability (LOESS-normalised, relative to median of negative controls) (log2 ratio); higher = more viable cells (less compound effect), active = hit call of the paper (over 3 MAD below the median)
- applied_conditions: 2.5 µM; library screen: screen1; EWS-FLI1 expression: low (doxycycline-induced shRNA knockdown); treatment time: 72 h
Out of some 3,200 compounds screened, about 300 (9.4%) showed activity. The sample as a whole holds a higher share of actives than the screen did.
This listing pairs molecules with measured cell viability (log2).
// response body must contain only the number

# example entries with known answers
molecule	cell viability (log2)
COC(=O)[C@H](O)[C@H]1C(C)(C)[C@H](O)[C@@H]2CC3=C4CC(=O)O[C@@H](c5ccco5)[C@]4(C)CC[C@@H]3[C@@]1(C)C2=O	-0.137
CSCCC(N)C(=O)NC(CC(C)C)C(=O)NC(Cc1ccccc1)C(=O)O (centres undefined)	0.0328
C=C1c2cc(OC)ccc2NC(=O)N1c1ccccc1	0.0838
CC(=O)O[C@H]1CC[C@@]2(C)C(=CC[C@H]3[C@@H]4CC[C@H]([C@H](C)CCCC(C)C)[C@@]4(C)CC[C@@H]32)C1	0.0189
Cc1cc(=O)oc2cc(O)c(O)cc12	0.0751
O[C@@H](c1cc(C(F)(F)F)nc2c(C(F)(F)F)cccc12)[C@H]1CCCCN1	0.0765
COc1ccc2c(c1)[C@@]1(C)CCC(=O)C[C@@H]1CC2	0.0859
O=C(Nc1cccc(Cl)c1)/C(=C\c1ccco1)NC(=O)c1cccs1	0.0226

Look up cell viability (log2): Cc1cc(=O)oc2cc(O)ccc12
-0.0344

Look up cell viability (log2): Cc1cc(=O)oc2c(O)c(O)ccc12
0.107

Look up cell viability (log2): O=C(NCO)c1cccnc1
0.103
